Sourced from ChEMBL document CHEMBL6087475

- Test system: PANC-1
- Protocol notes: Antiproliferative activity against human PANC-1 cells assessed as reduction in cell growth incubated for 24 hrs by MTT assay
- Assay type: functional, cell-based
- Condition details: PANC-1, 24 h
Measured parameter: EC50 (µM)

# Smiles input, Measured on, Reported measurement
measured = [
    ("COC(=O)c1ccc2c(c1)nc(NC(=O)c1ccccc1)n2CCCc1ccccc1", "PANC-1", 5),
]

---

Reported values: IC50 for Histone-lysine N-methyltransferase EHMT2 (Homo sapiens), one per item.

# Smiles input, IC50
records = [
    ("COc1cc2c(C3CCOCC3)nc(N)nc2cc1OCCCN1CCCC1", "126 nM"),
    ("CCN(c1cc(-c2ccc(CN3CCOCC3)cc2)cc(C(=O)NCc2c(C)cc(C)[nH]c2=O)c1C)C1CCOCC1", "2.9 nM"),
]
